Target: human recombinant adrenergic α1D receptor (Homo sapiens, UniProt P25100)
Construct: expressed in transfected cells; host or cells: HEK-293
Sequence (P25100 whole entry): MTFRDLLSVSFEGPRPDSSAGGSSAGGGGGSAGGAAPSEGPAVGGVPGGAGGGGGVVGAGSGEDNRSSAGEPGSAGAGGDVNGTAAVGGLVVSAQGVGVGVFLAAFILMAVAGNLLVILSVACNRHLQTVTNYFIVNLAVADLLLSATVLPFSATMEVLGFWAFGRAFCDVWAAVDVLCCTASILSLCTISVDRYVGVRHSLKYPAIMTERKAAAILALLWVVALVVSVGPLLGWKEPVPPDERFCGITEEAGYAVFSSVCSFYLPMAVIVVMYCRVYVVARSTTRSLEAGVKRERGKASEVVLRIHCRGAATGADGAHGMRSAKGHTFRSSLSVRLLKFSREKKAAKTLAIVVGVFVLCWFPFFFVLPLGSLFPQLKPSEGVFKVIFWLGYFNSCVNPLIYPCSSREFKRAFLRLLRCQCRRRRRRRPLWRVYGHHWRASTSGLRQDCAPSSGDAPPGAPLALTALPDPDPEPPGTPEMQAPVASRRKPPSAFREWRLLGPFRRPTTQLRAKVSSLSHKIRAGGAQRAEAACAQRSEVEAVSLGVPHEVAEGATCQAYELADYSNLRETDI
Experiment: Radioligand binding, adrenergic α1D ([3H]Prazosin)
Conditions: 0.1 μM compound; read-out: Percentage inhibition of ligand binding, Adrenergic α1D
MEASUREMENT_KIND: inhibition at 0.1 µM (%)

C/C(=C\n1c2c(c3cc(C)cnc31)CN(C)CC2)c1ccc(F)cc1 [compound 335]    73
C/C(=C/n1c2c(c3cc(C)ccc31)CN(C)CC2)c1ccc2ccn(C)c2c1 [compound 284]    81
C/C(=C\n1c2c(c3cc(C)cc(C)c31)CN(C)CC2)c1cccc(S(C)(=O)=O)c1 [compound 310]    47
C/C(=C\n1c2c(c3cc(C)ccc31)CN(C)CC2)c1ccc(C)s1 [compound 278]    44
Cc1ccc2c(c1)c1c(n2C=C(c2ccccc2)c2ccccc2)CCN(C)C1 [compound 267]    26

I: Cc1ccc2c(c1)c1c(n2C2=C(c3ccc(C)nc3)CCC2)CCN(C)C1 [II-82]
II: Cc1ccc2c(c1)c1c(n2CC(C)c2ccncc2)CCN(C)C1 (stereo not drawn) [compound 255]
When I and II are compared, which has the higher number for inhibition at 0.1 µM? Write down the label attached to your selection.
II

###

Target: human recombinant adrenergic α2A receptor (Homo sapiens)
Construct: expressed in transfected cells; host or cells: insect Sf9 cells
Sequence (P08913 whole entry): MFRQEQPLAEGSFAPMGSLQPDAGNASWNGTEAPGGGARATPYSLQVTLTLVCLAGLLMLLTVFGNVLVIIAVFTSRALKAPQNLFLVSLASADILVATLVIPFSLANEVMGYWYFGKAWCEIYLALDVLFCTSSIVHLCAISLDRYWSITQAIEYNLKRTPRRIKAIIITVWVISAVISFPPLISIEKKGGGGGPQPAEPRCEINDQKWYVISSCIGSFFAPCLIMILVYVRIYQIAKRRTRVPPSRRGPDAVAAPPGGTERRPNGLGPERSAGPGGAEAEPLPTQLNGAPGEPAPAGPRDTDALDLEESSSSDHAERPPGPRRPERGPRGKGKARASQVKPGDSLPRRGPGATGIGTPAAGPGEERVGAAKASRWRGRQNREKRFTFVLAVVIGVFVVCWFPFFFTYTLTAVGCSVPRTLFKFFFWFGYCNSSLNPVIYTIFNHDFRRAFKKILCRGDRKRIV
Test: Radioligand binding, adrenergic α2A ([3H]MK-912)
Conditions: read-out: Percentage inhibition of ligand binding, Adrenergic α2A (0.1 μM), compound at 0.1 μM; [3H]MK-912; repeat datapoints each shown
MEASUREMENT_KIND: inhibition at 0.1 µM (%)

Examples with answers:
CN1CCc2c(c3cc(C(F)(F)F)ccc3n2CCc2ccccc2)C1    80
Cc1ccc2c(c1)c1c(n2CC(O)c2cnn(C)c2)CCN(C)C1 (stereo not drawn) [131a]    10
Cc1ccc2c(c1)c1c(n2CC(OC(=O)N(C)C)c2ccncc2)CCN(C)C1 (single isomer, unassigned) [141b]    19

I: C/C(=C\n1c2c(c3cc(C)ccc31)CN(C)CC2)c1cccc(F)c1
II: Cc1ccc2c(c1)c1c(n2CC(C)(O)c2ccc(C(=O)O)nc2)CCN(C)C1 (stereo not drawn)
III: CCC1c2c(c3cc(Cl)ccc3n2CC(C)(O)c2ccc(F)cc2)CCN1C (stereo not drawn)
IV: CNC(=O)c1cccc(/C(C)=C/n2c3c(c4cc(C)ccc42)CN(C)CC3)c1
Arrange the 4 entries by inhibition at 0.1 µM so the values rise. As an answer, provide the labels arranged in the order called for.
III, IV, II, I
(III: 7%, IV: 10%, II: 15%, I: 98%)

1: Cc1ccc(CCn2c3c(c4c(Br)ccc(Cl)c42)CN(C)CC3)cn1
2: Cc1ccc(CCn2c3c(c4cccnc42)CN2CCCC2C3)cn1 (stereo not drawn)
Field: entry with larger inhibition at 0.1 µM (options 1 / 2 ). Your choice should be expressed through its label.
1
(1: 83%, 2: 7%)

###

Biological target: rat adrenergic α1B receptor (Rattus norvegicus, UniProt P15823)
Construct: rat adrenergic α1B receptor obtained from Wistar Rat liver; from tissue; host or cells: Wistar rat liver
Sequence (P15823 1-515): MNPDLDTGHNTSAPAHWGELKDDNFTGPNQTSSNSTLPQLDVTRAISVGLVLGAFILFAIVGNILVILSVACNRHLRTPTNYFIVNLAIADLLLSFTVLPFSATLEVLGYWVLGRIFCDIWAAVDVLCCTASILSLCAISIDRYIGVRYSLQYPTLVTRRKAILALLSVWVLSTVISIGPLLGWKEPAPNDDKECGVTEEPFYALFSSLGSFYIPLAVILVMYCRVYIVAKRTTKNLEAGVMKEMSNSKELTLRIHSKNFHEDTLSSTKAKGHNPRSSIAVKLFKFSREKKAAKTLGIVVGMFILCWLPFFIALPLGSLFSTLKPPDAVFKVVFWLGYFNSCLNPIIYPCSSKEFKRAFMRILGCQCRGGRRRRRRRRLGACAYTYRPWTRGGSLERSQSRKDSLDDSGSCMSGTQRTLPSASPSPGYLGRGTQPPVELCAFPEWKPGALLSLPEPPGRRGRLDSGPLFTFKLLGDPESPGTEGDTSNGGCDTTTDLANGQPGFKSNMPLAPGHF
Assay: Radioligand binding, adrenergic α1B ([3H]Prazosin)
Details: compound at 0.1 μM; [3H]Prazosin; repeat assays, each datapoint shown; 0.1 µM
MEASUREMENT_KIND: Percentage inhibition of ligand binding, Adrenergic α1B (%)

Known Percentage inhibition of ligand binding, Adrenergic α1B results, listed for orientation:
CC(=O)c1ccc2c(c1)c1c(n2CC(O)c2ccncc2)CCN(C)C1 (single isomer, unassigned) [49b]    5
Cc1ccc2c(c1)c1c(n2C2=C(c3cn[nH]c3)CCC2)CCN(C)C1 [compound 77]    6
Cc1ccc2c(c1)c1c(n2CC(O)c2ccncc2)CC2CCCCN2C1 (racemic) [75a]    61
Cc1ccc2c(c1)c1c(n2CC(O)c2ccncc2)CCN2CCCCC12 (single isomer, unassigned) [47d]    5
Cc1cnc2c(c1)c1c(n2CC(O)c2ccncc2)CCNC1 (single isomer, unassigned) [58a]    7

A: Cc1ccc2c(c1)c1c(n2CC(C)(O)c2ccc(C)nc2)CCN(C)C1 (single isomer, unassigned) [29a]
B: COc1cccc2c3c(n(CC(O)c4ccncc4)c12)CCN(C)C3 (single isomer, unassigned) [44b]
C: Cc1cnc2c(c1)c1c(n2CC(C)(O)c2cccnc2)CCN2CCCC12 (single isomer, unassigned) [26c]
Order these by Percentage inhibition of ligand binding, Adrenergic α1B, descending, and give the full ranking. Field: ranking. Enter the labels in the order requested.
A, B, C

I: CN1CCc2c(c3cc(Cl)ccc3n2CC(C)(O)c2cccnc2)C1 (single isomer, unassigned) [31a]
II: CC(O)(Cn1c2c(c3cc(Cl)ccc31)CNCC2)c1ccncn1 (single isomer, unassigned) [42b]
Which one would you say has the larger Percentage inhibition of ligand binding, Adrenergic α1B value: I , or II ? Lab note: record the label of whichever item you select.
I

I: Cc1ccc2c(c1)c1c(n2CC(C)(O)c2ccccn2)CN(C)CC1 (single isomer, unassigned) [16a]
II: Cc1ccc2c(c1)c1c(n2CC(O)c2ccncc2)C(C)N2CCC1C2 (single isomer, unassigned) [38b]
Returns the identifier with the smallest measured Percentage inhibition of ligand binding, Adrenergic α1B among I and II . Reply briefly: the label of your chosen item.
II

I: Cc1ccc2c(c1)c1c(n2CC(O)c2ccncc2)CCN2CCCCC12 (single isomer, unassigned) [47b]
II: CN1Cc2c(n(CC(O)c3ccncc3)c3ncccc23)C(C)(C)C1 (single isomer, unassigned) [17a]
III: Cc1ccc2c(c1)c1c(n2CC(O)c2cccnc2)CN(C)CC1 (stereo not shown) [compound 43]
Sort the 3 compounds by Percentage inhibition of ligand binding, Adrenergic α1B; largest first, smallest last. Reply with the item labels sorted in the order that was asked for.
I, III, II

###

Target: human recombinant adrenergic α2B receptor (Homo sapiens)
Construct: expressed in transfected cells; host or cells: CHO-K1
Sequence (P18089 whole entry): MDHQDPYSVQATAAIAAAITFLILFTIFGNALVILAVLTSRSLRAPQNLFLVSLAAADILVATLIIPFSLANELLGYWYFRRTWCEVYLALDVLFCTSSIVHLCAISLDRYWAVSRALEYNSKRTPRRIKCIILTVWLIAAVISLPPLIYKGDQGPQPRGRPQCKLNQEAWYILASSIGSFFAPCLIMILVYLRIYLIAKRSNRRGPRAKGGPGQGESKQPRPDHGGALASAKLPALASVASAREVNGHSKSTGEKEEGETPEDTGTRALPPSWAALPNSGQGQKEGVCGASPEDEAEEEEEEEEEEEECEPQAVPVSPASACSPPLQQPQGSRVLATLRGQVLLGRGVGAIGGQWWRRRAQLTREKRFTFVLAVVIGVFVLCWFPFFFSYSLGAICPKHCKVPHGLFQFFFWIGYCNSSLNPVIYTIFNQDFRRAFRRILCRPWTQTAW
Test: Radioligand binding, adrenergic α2B ([3H]Rauwolscine)
Settings: read-out: Ki α2B
MEASUREMENT_KIND: Ki (nM)

Example cases with answers are listed next.
Cc1ccc2c(c1)c1c(n2CC(N)c2ccncc2)CCN(C)C1 (single isomer, unassigned) [27b]    43.4
C/C(=C\n1c2c(c3cc(C)ccc31)CN(C)CC2)c1sccc1C    0.86

P: Cc1ccc2c(c1)c1c(n2C2=C(c3ccc(C)nc3)CCC2)CCN(C)C1
Q: Cc1ccc2c(c1)c1c(n2CC(C)(O)c2cccnc2)CN(C)CC1 (single isomer, unassigned) [14a]
Pick one: P or Q . Which one has the lower reported Ki? Identify your pick by its label.
Q
(Q: 1.92 nM, P: 26.8 nM)

###

Target: human recombinant adrenergic α2B receptor (Homo sapiens)
Construct: expressed in transfected cells; host or cells: CHO-K1
Test: Radioligand binding, adrenergic α2B ([3H]Rauwolscine)
Conditions: compound at 0.03 μM; [3H]Rauwolscine; repeat assays, each datapoint shown; read-out: Percentage inhibition of ligand binding, Adrenergic α2B
MEASUREMENT_KIND: inhibition at 0.03 µM (%)

Below: 2 compounds and their reported inhibition at 0.03 µM.
CC(=O)c1ccc2c(c1)c1c(n2CC(O)c2ccncc2)CCN(C)C1 (single isomer, unassigned) [49a]    18
CN1CCc2c(c3cc(Cl)ccc3n2CC(C)(O)c2cccnc2)C1 (single isomer, unassigned) [31a]    93

I: Cc1ccc2c(c1)c1c(n2CC(O)c2ccncc2)CN(C)CC1 (single isomer, unassigned)
II: Cc1ccc2c(c1)c1c(n2CC(C)(O)c2cccnc2)CN(C)CC1 (stereo not drawn) [14b]
III: C/C(=C/n1c2c(c3cc(C)ccc31)CN(C)CC2)c1cn[nH]c1
Please list these in order of increasing inhibition at 0.03 µM. Thank you! Answer by listing the labels in the order asked for.
II, I, III
(II: 14%, I: 49%, III: 81%)

I: COc1ccc(C(O)Cn2c3c(c4cc(C)ccc42)CN(C)CC3)cc1OC (stereo not drawn)
II: CCN1CCc2c(c3cc(C)ccc3n2CCc2ccncc2)C1
Which is greater in inhibition at 0.03 µM, the first item I or the second item II ? Mark your answer with the label of the selected entry.
I
